- TEST NAME: Inhibition of Aspergillus fumigatus TrxR
pKi: −log10 of the molar value.
RECORDED METRIC: pKi

1) O=c1c2ccccc2[se]n1-c1ccccc1 : 6.66

Origin of measurements: ChEMBL document CHEMBL4321827
